Test system: K-562
test_method_notes: SRB colorimetric assay of cell growth and viability, K-562
Assay type: cell-based, human
test_parameters: K-562; 48 hours exposure
Where a SMILES comes first, the peptide text is derived from it. Bridges are numbered along the chain shown (N, C = ends). [ ]: non-standard residue; d: D form. The star is where a group is joined. d(aIle) = CC[C@H](C)[C@@H](N)C(=O)O; d(aThr) = C[C@@H](O)[C@@H](N)C(=O)O; hCha = N[C@@H](CCC1CCCCC1)C(=O)O; Hexanoyl(5-Me) = CC(C)CCCC(=O)*; Phg = N[C@H](C(=O)O)c1ccccc1; Orn = NCCC[C@H](N)C(=O)O; Dhb = C/C=C(\N)C(=O)O

- molecule: "C/C=C1\\NC(=O)[C@H](Cc2ccccc2)NC(=O)[C@@H](C(C)C)NC(=O)[C@@H]([C@@H](C)CC)NC(=O)[C@H](NC(=O)[C@H](NC(=O)[C@H](CCCN)NC(=O)[C@H]2CCCN2C(=O)[C@H](NC(=O)[C@@H](NC(=O)[C@H](C)NC(=O)[C@H](NC(=O)CCCC(C)C)C(C)C)C(C)C)C(C)C)[C@@H](C)CC)[C@@H](C)OC(=O)[C@H](C(C)C)NC1=O [Compound 112, [Ala^12]-KF] ({Hexanoyl(5-Me)}-[dV]AV[dV][dP][Orn][d(aIle)][d(aThr)][d(aIle)][dV]F[Dhb]V; ester 8-C)"
  TGI K-562: "5.62E−06 Molar"
- molecule: "C/C=C1\\NC(=O)[C@H](c2ccccc2)NC(=O)[C@@H](C(C)C)NC(=O)[C@@H]([C@@H](C)CC)NC(=O)[C@H](NC(=O)[C@H](NC(=O)[C@H](CCCN)NC(=O)[C@H]2CCCN2C(=O)[C@H](NC(=O)[C@@H](NC(=O)[C@@H](NC(=O)[C@H](NC(=O)CCCC(C)C)C(C)C)[C@@H](C)O)C(C)C)C(C)C)[C@@H](C)CC)[C@@H](C)OC(=O)[C@H](C(C)C)NC1=O [Compound 87, [Phg^3]-KF] ({Hexanoyl(5-Me)}-[dV]TV[dV][dP][Orn][d(aIle)][d(aThr)][d(aIle)][dV][Phg][Dhb]V; ester 8-C)"
  TGI K-562: "1.90E−06 Molar"
- molecule: "C/C=C1\\NC(=O)[C@H](Cc2ccccc2Cl)NC(=O)[C@@H](C(C)C)NC(=O)[C@@H]([C@@H](C)CC)NC(=O)[C@H](NC(=O)[C@H](NC(=O)[C@H](CCCN)NC(=O)[C@H]2CCCN2C(=O)[C@H](NC(=O)[C@@H](NC(=O)[C@@H](NC(=O)[C@H](NC(=O)CCCC(C)C)C(C)C)[C@@H](C)O)C(C)C)C(C)C)[C@@H](C)CC)[C@@H](C)OC(=O)[C@H](C(C)C)NC1=O [Compound 81, [Phe(2-Cl)^3]-KF]"
  TGI K-562: "1.84E−06 Molar"
- molecule: "C/C=C1\\NC(=O)[C@H](CCC2CCCCC2)NC(=O)[C@@H](C(C)C)NC(=O)[C@@H]([C@@H](C)CC)NC(=O)[C@H](NC(=O)[C@H](NC(=O)[C@H](CCCN)NC(=O)[C@H]2CCCN2C(=O)[C@H](NC(=O)[C@@H](NC(=O)[C@@H](NC(=O)[C@H](NC(=O)CCCC(C)C)C(C)C)[C@@H](C)O)C(C)C)C(C)C)[C@@H](C)CC)[C@@H](C)OC(=O)[C@H](C(C)C)NC1=O [Compound 63] ({Hexanoyl(5-Me)}-[dV]TV[dV][dP][Orn][d(aIle)][d(aThr)][d(aIle)][dV][hCha][Dhb]V; ester 8-C)"
  TGI K-562: "2.63E−06 Molar"

* * *

Tested on: DU-145
test_method_notes: SRB colorimetric assay of cell growth and viability, DU-145
Assay type: cell-based, human
test_parameters: 48 hours exposure
readout: LC50 (concentration causing 50% net cell kill) (nM)

- molecule: "C/C=C1\\NC(=O)[C@H](Cc2ccccc2)NC(=O)[C@@H](C(C)C)NC(=O)[C@@H]([C@@H](C)CC)NC(=O)[C@H](NC(=O)[C@H](NC(=O)[C@H](CCCN)NC(=O)[C@H]2CCCN2C(=O)[C@H](NC(=O)[C@@H](NC(=O)[C@@H](NC(=O)[C@H](NC(=O)CCCCCCCCCC)C(C)C)[C@@H](C)O)C(C)C)C(C)C)[C@@H](C)CC)[C@@H](C)OC(=O)[C@H](C(C)C)NC1=O [Compound 15, [Und^14]-KF]"
  output_unit: "nM"
  relation_symbol: "="
  test_value: 1040
- molecule: "C/C=C1\\NC(=O)[C@H](Cc2ccccc2)NC(=O)[C@@H](C(C)C)NC(=O)[C@@H]([C@@H](C)CC)NC(=O)[C@H](NC(=O)[C@H](NC(=O)[C@H](CCCN)NC(=O)[C@H]2CCCN2C(=O)[C@H](NC(=O)[C@@H](NC(=O)[C@H](NC(=O)[C@H](NC(=O)CCCC(C)C)C(C)C)[C@H](C)O)C(C)C)C(C)C)[C@@H](C)CC)[C@@H](C)OC(=O)[C@H](C(C)C)NC1=O [Compound 7, [D-Thr^12]-KF]"
  output_unit: "nM"
  relation_symbol: "≥"
  test_value: 6770

* * *

Tested on: DU-145
test_method_notes: SRB colorimetric assay of cell growth and viability, DU-145
Type: cell-based, human
test_parameters: 48 hours exposure
readout: LC50 (concentration causing 50% net cell kill) (µM)

- compound: "C/C=C1\\NC(=O)[C@H](Cc2ccccc2)NC(=O)[C@@H](C(C)C)NC(=O)[C@@H]([C@@H](C)CC)NC(=O)[C@H](NC(=O)[C@H](NC(=O)[C@H](CCCN)NC(=O)[C@H]2CCCN2C(=O)[C@H](NC(=O)[C@@H](NC(=O)[C@@H](NC(=O)[C@H](NC(=O)c2ccccc2)C(C)C)[C@@H](C)O)C(C)C)C(C)C)[C@@H](C)CC)[C@@H](C)OC(=O)[C@H](C(C)C)NC1=O [Compound 20, [Bza^14]-KF]"
  target_entity: "DU-145"
  test_value: 4.25
- compound: "C/C=C1\\NC(=O)[C@H](Cc2ccccc2)NC(=O)[C@@H](C(C)C)NC(=O)[C@@H]([C@@H](C)CC)NC(=O)[C@H](NC(=O)[C@H](NC(=O)[C@H](CCCN)NC(=O)[C@H]2CCCN2C(=O)[C@H](NC(=O)[C@@H](NC(=O)[C@@H](NC(=O)[C@@H](CC(C)C)NC(=O)CCCC(C)C)[C@@H](C)O)C(C)C)C(C)C)[C@@H](C)CC)[C@@H](C)OC(=O)[C@H](C(C)C)NC1=O [Compound 35, [D-Leu^13]-KF]"
  target_entity: "DU-145"
  test_value: 3.53
- compound: "C/C=C1\\NC(=O)[C@H](Cc2ccccc2)NC(=O)[C@@H](C(C)C)NC(=O)[C@@H]([C@@H](C)CC)NC(=O)[C@H](NC(=O)[C@H](NC(=O)[C@H](CCCN)NC(=O)[C@H]2CCCN2C(=O)[C@H](NC(=O)[C@@H](NC(=O)[C@@H](NC(=O)[C@H](NC(=O)CCCCC(C)=O)C(C)C)[C@@H](C)O)C(C)C)C(C)C)[C@@H](C)CC)[C@@H](C)OC(=O)[C@H](C(C)C)NC1=O [Compound 27, [6-OHep^14]-KF]"
  target_entity: "DU-145"
  test_value: 6.7

* * *

Test system: HeLa
test_method_notes: SRB colorimetric assay of cell growth and viability, HeLa
Format: cell-based, human
test_parameters: 48 hours exposure, SRB; read-out: LC50 HELA
Procedure: The finality of this assay is to interrupt the growth of a “in vitro” tumor cell culture by means a continued exhibition of the cells to the sample to be testing. […] Cells are seeded in 96 well microtiter plates, at 5×10^3 cells per well in aliquots of 195 μL medium, and they are allowed to attach to the plate surface by growing in drug free medium for 18 hours. […] Optical densities are read on a automated spectrophotometric plate reader at a single wavelength of 490 nm. […]

- molecule: "C/C=C1\\NC(=O)[C@H](Cc2ccc(I)cc2)NC(=O)[C@@H](C(C)C)NC(=O)[C@@H]([C@@H](C)CC)NC(=O)[C@H](NC(=O)[C@H](NC(=O)[C@H](CCCN)NC(=O)[C@H]2CCCN2C(=O)[C@H](NC(=O)[C@@H](NC(=O)[C@@H](NC(=O)[C@H](NC(=O)CC[C@@H](C)CC)C(C)C)[C@@H](C)O)C(C)C)C(C)C)[C@@H](C)CC)[C@@H](C)OC(=O)[C@H](C(C)C)NC1=O [Compound 72, [Phe(4-I)^3, (4S)-MeHex^14]-KF]"
  target_entity: "HeLa"
  CC50, µM: 0.379
- molecule: "C/C=C1\\NC(=O)[C@H](Cc2c(F)c(F)c(F)c(F)c2F)NC(=O)[C@@H](C(C)C)NC(=O)[C@@H]([C@@H](C)CC)NC(=O)[C@H](NC(=O)[C@H](NC(=O)[C@H](CCCN)NC(=O)[C@H]2CCCN2C(=O)[C@H](NC(=O)[C@@H](NC(=O)[C@@H](NC(=O)[C@H](NC(=O)CC[C@@H](C)CC)C(C)C)[C@@H](C)O)C(C)C)C(C)C)[C@@H](C)CC)[C@@H](C)OC(=O)[C@H](C(C)C)NC1=O [Compound 71, [Phe(F5)^3, (4S)-MeHex^14]-KF]"
  target_entity: "HeLa"
  CC50, µM: 3.16
